Kindly state logP for each of the entries shown.
Answers are plain numbers.

Cc1[nH]c2ccccc2c1C = 3.05
CSC(C)=NOC(=O)N(C)SN(C)C(C)=O = 1.3
O=[N+]([O-])c1ccc(Cc2ccncc2)cc1 = 2.88
CCNCC(=O)Nc1c(C)cccc1C = 1.32
O=[N+]([O-])c1ccc(O)cc1O = 1.05
O=CC1=CC=C2C(C(=O)O)CCN2c2cc(Br)ccc21 (configuration not stated) = 3.6
COC(=O)CCC(C)=O = -0.13
CC(=O)Oc1cccc(OC(C)=O)c1C(N)=O = -0.62

List reported logP for each of these compounds:
1. CCOCCNCC(O)COc1ccc(-c2ncc(-c3cccs3)[nH]2)cc1 (configuration not stated)
2. CCCCc1ccncc1
3. C=C(C)C(=O)OCC(CC)CCCC (configuration not stated)
4. N#CC(CCN1CCC(C(N)=O)(N2CCCCC2)CC1)(c1ccccc1)c1ccccc1

[2.25, 3.13, 4.54, 3.91]

List reported logP for each of these compounds:
1. Cc1ccc2[nH]c(=O)nc(-c3ccccc3)c2c1
2. CCCCCCC(C)(C)c1cc(O)c2c(c1)OC(C)(C)C1CC=C(C)CC21 (configuration not stated)

2.32
9.96

List reported logP for each of these compounds:
1. Nc1ccc(S(=O)(=O)Nc2ccccc2[N+](=O)[O-])cc1
2. CCOc1ccc(Cc2cnc(N)nc2N)cc1OC
3. CCc1ccc(NC(=O)CN2CCCCC2)cc1

1: 2.11; 2: 1.34; 3: 3.52

* * *

Kindly state logP for each of the entries shown.
Answers are plain numbers.

O=C(O)C=Cc1ccc2c(c1)OCO2 = 2.59
CC1(C)[C@@H](O[C@H]2O[C@H](C(=O)O)[C@@H](O)[C@H](O)[C@H]2O[C@@H]2O[C@H](C(=O)O)[C@@H](O)[C@H](O)[C@H]2O)CC[C@]2(C)[C@H]3C(=O)C=C4[C@@H]5C[C@@](C)(C(=O)O)CC[C@]5(C)CC[C@@]4(C)[C@]3(C)CC[C@@H]12 = 2.8
Clc1ccc(-c2ccccc2)c(Cl)c1 = 5.16

Moving on to another compound below.
Recorded logP of CCCOc1ccc(Cc2cnc(N)nc2N)cc1OC , please.
2.02

* * *

Kindly state logP for each of the entries shown.

CC(C)NCC(O)c1ccc2ccccc2c1 (stereo not given) = 3
O=C(Cn1ccnc1[N+](=O)[O-])N(CCO)CCO = -1.64
O=NN1CC=CCC1 = 1.18
CCN(CC)CCCC(=O)Nc1c(C)cccc1C = 2.06
CCNCc1ccccc1 = 1.82
COC(=O)C=COc1ccccc1Cl = 3.02

List reported logP for each of these molecules:
1. CCCn1c(=O)n(C)c(=O)c2nc[nH]c21
2. CCCC(=O)OCC(Cc1cncn1C)C(CC)C(=O)OCc1ccccc1 (stereo not given)
3. C#CC1(O)C(F)CC2C3CCc4cc(O)ccc4C3CCC21C (stereo not given)
4. CCCOc1ccc(CC(=O)O)cc1
5. CC1CCC(c2ccccc2)(N2CCCCC2)CC1 (stereo not given)
6. COC(=O)c1ccc(N)cc1
7. CNC(=O)Oc1ccc(N(C)C)c(C)c1

1: 1.02; 2: 3.78; 3: 3.3; 4: 2.31; 5: 5.66; 6: 1.37; 7: 1.9

* * *

Assign a class from recorded logP; defined classes: b0 = under 2, b1 = from 2 up to 4, b2 = 4 and over

The following compounds have reported results that may help.
FC(F)(c1ccccc1)C(F)(F)c1ccccc1 = b2
Fc1cccc(N=C2NCCN2)c1Cl = b0
O=[N+]([O-])O[C@@H]1CO[C@H]2[C@@H]1OC[C@@H]2O = b0
CN(C)CCCCN(Cc1ccc(C(C)(C)C)cc1)c1ccccc1 = b2
CCN(CC)CCCCCC(=O)Nc1c(C)cccc1C = b1
CCCCCCCCCCCCCc1cccc(O)c1 = b2
CC1CC(C)(C)CC(c2ccccc2)(N2CCCCC2)C1 (centres undefined) = b2
c1ccc(-c2ncn[nH]2)cc1 = b0

Class (by measured logP) for CCCCCCCOC1OC(CO)C(O)C(O)C1O (centres undefined)
b0

Class (by measured logP) for CCC(C(=O)OCc1ccc(C)cc1)C(COC(=O)c1ccccc1)Cc1cncn1C (centres undefined)
b2

Class (by measured logP) for C#CC1(O)CCC2C3CCc4cc(O)ccc4C3C(CC)CC21C (centres undefined)
b2

Class (by measured logP) for O=C1c2ccccc2C(=O)C1c1ccc(Cl)cc1
b1

Class (by measured logP) for O=C(O)c1cc2ccccc2cc1O
b1

Class (by measured logP) for Nc1nc2c(ncn2COC(CO)CO)c(=O)[nH]1
b0

Class (by measured logP) for Cc1ccccc1NC1=NCCN1
b0

Class (by measured logP) for C=C(C)C(=O)OC1CC2=CC(CC3(C)OC3C3OC(=O)C(=C)C13)OC2=O (centres undefined)
b0

Class (by measured logP) for COCc1cnc(-c2ccc(OCC(O)CNCCc3ccc(OC)c(OC)c3)cc2)[nH]1 (centres undefined)
b0

Class (by measured logP) for O=C1C2C3C=CC(C3)C2C(=O)N1CCCCN1CCN(c2ncccn2)CC1 (centres undefined)
b0

Class (by measured logP) for CCN(CC)CCCN(C(=O)Cc1ccccc1)c1c(C)cccc1C
b2

Class (by measured logP) for CCC(=O)Oc1c(OC)c(OC)c(OC(=O)CC)c2ccccc12
b1
